Experiment: Single-dose pharmacokinetics in healthy volunteers under fasting and fed (high-fat breakfast) conditions, plasma concentrations by HPLC-MS, non-compartmental analysis
Assay type: in vivo, human
Conditions: both sexes, human, plasma, po, Fed (high-fat breakfast), all subjects, single oral dose, mean ± SD; read-out: Tmax
Result type: Tmax (h)
One number for each entry, in h.

Examples from the recorded data:
Compound	Tmax / h
COCCCOc1ccnc(C[S+]([O-])c2nc3ccccc3[nH]2)c1C (stereo not drawn) [Rabeprazole, rabeprazole]	7.2
COc1ccc2[nH]c([S+]([O-])Cc3ncc(C)c(OC)c3C)nc2c1 (stereo not drawn) [Omeprazole, omeprazole]	4.9

Query: Please indicate Tmax recorded for COc1ccnc(C[S+]([O-])c2nc3ccc(OC(F)F)cc3[nH]2)c1OC (stereo not drawn) [Pantoprazole, pantoprazole]
Result: 7
